tested on: Saccharomyces cerevisiae; experiment: Antifungal activity against recombinant Saccharomyces cerevisiae Y2301 overexpressing ScErg11 Y140F mutant assessed as inhibition of fungal growth incubated for 48 hrs by CLSI based broth microdilution assay; type: functional
Can you tell me MIC for the items I'm about to list?
Could you kindly put the unit after your number?

[in] Which MIC value belongs to OC(Cn1cncn1)(Cn1cncn1)c1ccc(F)cc1F [FLUCONAZOLE] ?
[out] 4 µg/mL

[in] Which MIC value belongs to C[C@@H](c1nc(-c2ccc(C#N)cc2)cs1)[C@](O)(Cn1cncn1)c1ccc(F)cc1F [RAVUCONAZOLE] ?
[out] 0.016 µg/mL

[in] Which MIC value belongs to C[C@@H](OCc1ccn(Cc2ccc(Cl)cc2)n1)[C@](O)(Cn1cncn1)c1ccc(F)cc1F ?
[out] 0.008 µg/mL

[in] Which MIC value belongs to CC[C@@H]([C@H](C)O)n1ncn(-c2ccc(N3CCN(c4ccc(OC[C@@H]5CO[C@@](Cn6cncn6)(c6ccc(F)cc6F)C5)cc4)CC3)cc2)c1=O [POSACONAZOLE] ?
[out] 2 µg/mL

[in] Which MIC value belongs to CC(=O)N1CCN(c2ccc(OCC3COC(Cn4ccnc4)(c4ccc(Cl)cc4Cl)O3)cc2)CC1 (configuration not stated) [KETOCONAZOLE] ?
[out] 2 µg/mL

[in] Which MIC value belongs to C[C@@H](OCc1ccn(Cc2ccc(F)cc2)n1)[C@](O)(Cn1cncn1)c1ccc(F)cc1F ?
[out] 0.0313 µg/mL

[in] Which MIC value belongs to C[C@@H](c1ncncc1F)[C@](O)(Cn1cncn1)c1ccc(F)cc1F [VORICONAZOLE] ?
[out] 0.0313 µg/mL

###

Can you tell me MIC for the items I'm about to list?
test system: Candida parapsilosis; test: Antifungal activity against Candida parapsilosis 22019 assessed as inhibition of fungal growth incubated for 48 hrs by CLSI based broth microdilution assay; format: functional; conditions: Lodderomyces parapsilosis
State the answer as a number, implicitly in µg/mL.

[in] Which MIC value belongs to C[C@@H](OCc1ccn(Cc2cccc(F)c2)n1)[C@](O)(Cn1cncn1)c1ccc(F)cc1F ?
[out] 0.5

[in] Which MIC value belongs to C[C@@H](OCc1ccn(Cc2cc(F)ccc2F)n1)[C@](O)(Cn1cncn1)c1ccc(F)cc1F ?
[out] 0.5

[in] Which MIC value belongs to C[C@@H](OCc1ccn(Cc2c(Cl)cc(Cl)cc2Cl)n1)[C@](O)(Cn1cncn1)c1ccc(F)cc1F ?
[out] 2

[in] Which MIC value belongs to C[C@@H](OCc1ccn(Cc2ccc([N+](=O)[O-])cc2)n1)[C@](O)(Cn1cncn1)c1ccc(F)cc1F ?
[out] 0.25

[in] Which MIC value belongs to C[C@@H](OCc1ccn(Cc2ccccc2Cl)n1)[C@](O)(Cn1cncn1)c1ccc(F)cc1F ?
[out] 0.5

[in] Which MIC value belongs to C[C@@H](OCc1ccn(Cc2ccc(F)cc2Cl)n1)[C@](O)(Cn1cncn1)c1ccc(F)cc1F ?
[out] 1

[in] Which MIC value belongs to C[C@@H](OCc1ccn(Cc2ccc(Cl)cc2)n1)[C@](O)(Cn1cncn1)c1ccc(F)cc1F ?
[out] 0.25

[in] Which MIC value belongs to C[C@@H](OCc1ccn(Cc2c(F)cccc2F)n1)[C@](O)(Cn1cncn1)c1ccc(F)cc1F ?
[out] 0.5

The measured values listed here are drawn from ChEMBL document CHEMBL5579851.
